// data source = patent US9771341B2

tested-on: MAGL (Mus musculus, UniProt O35678)
Construct: Proteomes (mouse brain membrane fraction or cell lysates); from tissue; host or cells: mouse brain membrane fraction (or unspecified cell lysates)
Sequence (O35678 1-303): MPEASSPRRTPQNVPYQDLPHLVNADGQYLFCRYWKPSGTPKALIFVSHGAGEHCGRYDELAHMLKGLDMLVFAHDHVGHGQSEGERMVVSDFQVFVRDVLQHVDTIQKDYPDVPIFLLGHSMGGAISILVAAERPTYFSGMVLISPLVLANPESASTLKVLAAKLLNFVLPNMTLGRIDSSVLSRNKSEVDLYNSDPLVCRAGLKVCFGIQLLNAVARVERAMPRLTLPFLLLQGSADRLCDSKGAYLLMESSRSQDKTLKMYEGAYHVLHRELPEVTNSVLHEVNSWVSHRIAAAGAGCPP
test-name: In vitro competitive activity-based protein profiling (mouse), MAGL
Type: biochemical
protocol-conditions: mouse brain membrane fraction or cell lysates, 30 min preincubation at 37° C, FP-Rh probe
property-measured: IC50

Record excerpt, results attached:
{"molecule": "O=C(OC(C(F)(F)F)C(F)(F)F)N1CCN(Cc2ccc(Cl)cc2N2CC3CN(C4CC4)CC3C2)CC1 (stereo not drawn)", "property-measured": "IC50", "reported-value": "100 to 1000 nM"}
{"molecule": "O=C(O)C1CCN(c2cc(C(F)(F)F)ccc2CN2CCN(C(=O)OC(C(F)(F)F)C(F)(F)F)CC2)C1 (stereo not drawn)", "property-measured": "IC50", "reported-value": "< 100 nM"}
{"molecule": "O=C(O)C1CCN(c2cc(Cl)ccc2CN2CCN(C(=O)OC(C(F)(F)F)C(F)(F)F)CC2)CC1", "property-measured": "IC50", "reported-value": "100 to 1000 nM"}
{"molecule": "CC(=O)N[C@@H]1CCN(Cc2cccc(CN3CCN(C(=O)OC(C(F)(F)F)C(F)(F)F)CC3)c2C)C1", "property-measured": "IC50", "reported-value": "100 to 1000 nM"}
{"molecule": "O=C(O)C1CN(c2cc(CN3CCN(C(=O)OC(C(F)(F)F)C(F)(F)F)CC3)cc(C(F)(F)F)c2)CCO1 (stereo not drawn)", "property-measured": "IC50", "reported-value": "< 100 nM"}
{"molecule": "O=C(OC(C(F)(F)F)C(F)(F)F)N1CCN(Cc2cc(N3CCC(CO)CC3)cc(C(F)(F)F)c2)CC1", "property-measured": "IC50", "reported-value": "100 to 1000 nM"}
{"molecule": "O=C(OC(C(F)(F)F)C(F)(F)F)N1CCN(Cc2ccc(C(F)(F)F)cc2N2CC3CN(C4CC4)CC3C2)CC1 (stereo not drawn)", "property-measured": "IC50", "reported-value": "< 100 nM"}
{"molecule": "Cc1c(CN2CCOCC2)cccc1CN1CCN(C(=O)OC(C(F)(F)F)C(F)(F)F)CC1", "property-measured": "IC50", "reported-value": "100 to 1000 nM"}

Next, consider the following molecule.
The value of IC50 measured for the molecule "O=C(OC(C(F)(F)F)C(F)(F)F)N1CCN(Cc2cccc(Cl)c2N2CC[C@H](CF)C2)CC1" turned out to be < 100 nM
